This listing pairs compounds with measured IC50.
Molecular target: TLR7/NFKb HEK cells (Homo sapiens)
Construct: expressed in transfected cells; host or cells: HEK cells (TLR7/NFKb reporter line)
Sequence (Q9NYK1 27-1049): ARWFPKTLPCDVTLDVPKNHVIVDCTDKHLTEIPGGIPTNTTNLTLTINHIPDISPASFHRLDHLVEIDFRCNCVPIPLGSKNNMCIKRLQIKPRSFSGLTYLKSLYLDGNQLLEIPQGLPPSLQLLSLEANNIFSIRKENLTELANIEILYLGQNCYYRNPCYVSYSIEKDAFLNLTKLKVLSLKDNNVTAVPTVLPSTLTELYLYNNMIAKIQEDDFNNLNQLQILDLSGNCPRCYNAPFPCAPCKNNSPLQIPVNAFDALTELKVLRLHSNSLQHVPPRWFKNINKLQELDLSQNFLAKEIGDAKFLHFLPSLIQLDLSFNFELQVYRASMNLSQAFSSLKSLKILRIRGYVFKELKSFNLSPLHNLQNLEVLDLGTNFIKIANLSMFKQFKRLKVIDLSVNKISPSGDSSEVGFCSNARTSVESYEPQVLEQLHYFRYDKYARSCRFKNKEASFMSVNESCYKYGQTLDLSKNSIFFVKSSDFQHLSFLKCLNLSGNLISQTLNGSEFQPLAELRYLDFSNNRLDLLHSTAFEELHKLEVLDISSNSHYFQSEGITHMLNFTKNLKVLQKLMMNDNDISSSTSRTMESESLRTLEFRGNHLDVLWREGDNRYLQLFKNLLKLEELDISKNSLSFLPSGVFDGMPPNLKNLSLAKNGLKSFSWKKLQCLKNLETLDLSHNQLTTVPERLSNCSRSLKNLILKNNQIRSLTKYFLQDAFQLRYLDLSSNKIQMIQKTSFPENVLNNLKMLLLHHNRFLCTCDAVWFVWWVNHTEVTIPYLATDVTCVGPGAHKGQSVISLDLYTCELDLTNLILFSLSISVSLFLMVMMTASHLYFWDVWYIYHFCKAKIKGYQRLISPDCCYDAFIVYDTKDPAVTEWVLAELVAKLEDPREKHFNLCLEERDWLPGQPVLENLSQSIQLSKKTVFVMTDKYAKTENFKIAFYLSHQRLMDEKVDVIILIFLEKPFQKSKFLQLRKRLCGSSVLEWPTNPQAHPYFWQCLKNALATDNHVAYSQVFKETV
Assay: HEK Cell Assay (TLR7/NFKb reporter, Steady-Glo luciferase readout)
Type: cell-based
Settings: 30 min compound preincubation, then R*48 agonist for 5 hours, read-out: Potency

COMPOUND | SYSTEM | IC50
C[C@H]1C[C@@H](NC(=O)CC2CNC2)CN(c2ccc(C(F)F)c3ncccc23)C1 [Compound 312] | TLR7/NFKb HEK cells (Homo sapiens) | 1000 to 10000 nM
NC1CN(c2ccc(C(F)(F)F)c3ncccc23)CC(F)(F)C1 (single isomer, unassigned) [Compound 527] | TLR7/NFKb HEK cells (Homo sapiens) | < 1000 nM
C[C@H]1C[C@@H](NC(=O)CO)CN(c2ccnc3ccccc23)C1 [Compound 14] | TLR7/NFKb HEK cells (Homo sapiens) | > 10000 nM
C[C@@H]1C[C@H](C(=O)NCCN2CCN(C)CC2)CN(c2ccc(C#N)c3nccnc23)C1 (relative stereo) [Compound 537] | TLR7/NFKb HEK cells (Homo sapiens) | < 1000 nM

---

Target: TLR7/NFKb HEK cells (Homo sapiens)
Assay: HEK Cell Assay (TLR7/NFKb reporter, Steady-Glo luciferase readout)
Conditions: 30 min compound preincubation, then R*48 agonist for 5 hours, read-out: Potency
Description: Example 142: HEK Cell Assay Into 384 CulturePlates (Corning 3707) was placed 5000 c/w of TLR7/NFKb HEK cells in 30 uL DMEM without Phenil red (gibco #31053) and 10% i.a. FCS and 2 mM L-ZGLutamin. The cells were incubated for 24 h at 37° C., 10% carbon dioxide and 90% relative humidity. […] The assay plate was allowed to sit for 30 min at room temperature and then the plate was read on EnVision.
Recorded IC50 for the following compounds
QUANTITY_NAME: IC50

COMPOUND | SYSTEM | ASSAY_VALUE
CNC(=O)CN[C@@H]1C[C@H](C)CN(c2ccc(C(F)(F)F)c3ncccc23)C1 | TLR7/NFKb HEK cells (Homo sapiens) | < 1 µM
CN(C)CC(=O)NC1CN(c2ccc(C#N)c3ncccc23)CC(F)(F)C1 (centres unmarked) [Compound 425] | TLR7/NFKb HEK cells (Homo sapiens) | < 1 µM
N[C@H]1C[C@@H](C2CC2)CN(c2ccc(F)c3ncccc23)C1 (relative stereo) | TLR7/NFKb HEK cells (Homo sapiens) | < 1 µM
CN(C)CC(=O)NC1CN(c2ccc(C#N)c3ncccc23)CC(F)(F)C1 (single isomer, unassigned) [Compound 450] | TLR7/NFKb HEK cells (Homo sapiens) | 1 to 10 µM
C[C@@H]1CN(c2ccc(C#N)c3nccnc23)C[C@H](C)O1 | TLR7/NFKb HEK cells (Homo sapiens) | < 1 µM
N#Cc1ccc(N2CCC(C(=O)NCCN3CCC(F)(F)CC3)CC2)c2cccnc12 | TLR7/NFKb HEK cells (Homo sapiens) | 1 to 10 µM
CCN(CC)CCNCC1CCN(c2ccnc3ccc(F)cc23)CC1 | TLR7/NFKb HEK cells (Homo sapiens) | 1 to 10 µM
C[C@H]1C[C@@H](NC(=O)CC(C)(C)C)CN(c2ccc(C#N)c3nccnc23)C1 | TLR7/NFKb HEK cells (Homo sapiens) | < 1 µM

---

Target: TLR7/NFKb HEK cells (Homo sapiens)
Assay: HEK Cell Assay (TLR7/NFKb reporter, Steady-Glo luciferase readout)
Conditions: 30 min compound preincubation, then R*48 agonist for 5 hours, read-out: Potency
Structures can show the parent of a compound that is named as a salt.
IC50 for assorted molecules

MOLECULE | IC50
CC1(C)C[C@@H](NC(=O)CN2CCOCC2)CN(c2ccc(C#N)c3nccnc23)C1 | 1000 to 10000 nM
N#Cc1ccc(N2C[C@H](NC(=O)CC3CCC(F)(F)CC3)C[C@H](C(F)(F)F)C2)c2cccnc12 | < 1000 nM
CN1CCC(CNC(=O)C2CN(c3ccc(C#N)c4ncccc34)CC(F)(F)C2)CC1 (single isomer, unassigned) [Compound 546] | < 1000 nM
N#Cc1ccc(N2CCC(CNC(=O)CN3CCC3)CC2)c2cccnc12 | < 1000 nM
Cc1cc2c(N3C[C@@H](C)C[C@@H](NC(=O)CO)C3)ccnc2n1C | > 10000 nM
C[C@H]1C[C@@H](NC(=O)CC2CCN(C)C2)CN(c2ccc(C(F)F)c3ncccc23)C1 (some centres unmarked) | < 1000 nM
N#Cc1ccc(N2CC(N)CC(F)(F)C2)c2cccnc12 (centres unmarked) [Compound 423, hydrochloride] | < 1000 nM
C[C@H]1C[C@@H](NC(=O)CC2(N)CCCCC2)CN(c2ccc(C(F)(F)F)c3ncccc23)C1 | < 1000 nM

---

Target: TLR7/NFKb HEK cells (Homo sapiens, UniProt Q9NYK1)
Assay: HEK Cell Assay (TLR7/NFKb reporter, Steady-Glo luciferase readout)
Conditions: 30 min compound preincubation, then R*48 agonist for 5 hours, read-out: Potency
Listed here: items and their measured IC50.

MOLECULE | IC50
C[C@H]1C[C@@H](NC(=O)CN(C)C)CN(c2ccc(C(N)=O)c3ncccc23)C1 [Compound 186] | > 10 µM
C[C@H]1C[C@@H](NC(=O)CN(C)C)CN(c2c(F)cc(C#N)c3nccnc23)C1 [Compound 347] | 1 to 10 µM
CCC(C)C(=O)N[C@@H]1C[C@H](C)CN(c2ccc(C#N)c3nccnc23)C1 (single isomer, unassigned) [Compound 154] | < 1 µM
C[C@H]1C[C@@H](NC(=O)C(N)C2CC2)CN(c2ccc(C#N)c3nccnc23)C1 (stereo partly shown) [Compound 268] | < 1 µM

---

We begin with a simple list: items and their reported IC50.
Biological target: TLR7/NFKb HEK cells (Homo sapiens)
Sequence (Q9NYK1 27-1049): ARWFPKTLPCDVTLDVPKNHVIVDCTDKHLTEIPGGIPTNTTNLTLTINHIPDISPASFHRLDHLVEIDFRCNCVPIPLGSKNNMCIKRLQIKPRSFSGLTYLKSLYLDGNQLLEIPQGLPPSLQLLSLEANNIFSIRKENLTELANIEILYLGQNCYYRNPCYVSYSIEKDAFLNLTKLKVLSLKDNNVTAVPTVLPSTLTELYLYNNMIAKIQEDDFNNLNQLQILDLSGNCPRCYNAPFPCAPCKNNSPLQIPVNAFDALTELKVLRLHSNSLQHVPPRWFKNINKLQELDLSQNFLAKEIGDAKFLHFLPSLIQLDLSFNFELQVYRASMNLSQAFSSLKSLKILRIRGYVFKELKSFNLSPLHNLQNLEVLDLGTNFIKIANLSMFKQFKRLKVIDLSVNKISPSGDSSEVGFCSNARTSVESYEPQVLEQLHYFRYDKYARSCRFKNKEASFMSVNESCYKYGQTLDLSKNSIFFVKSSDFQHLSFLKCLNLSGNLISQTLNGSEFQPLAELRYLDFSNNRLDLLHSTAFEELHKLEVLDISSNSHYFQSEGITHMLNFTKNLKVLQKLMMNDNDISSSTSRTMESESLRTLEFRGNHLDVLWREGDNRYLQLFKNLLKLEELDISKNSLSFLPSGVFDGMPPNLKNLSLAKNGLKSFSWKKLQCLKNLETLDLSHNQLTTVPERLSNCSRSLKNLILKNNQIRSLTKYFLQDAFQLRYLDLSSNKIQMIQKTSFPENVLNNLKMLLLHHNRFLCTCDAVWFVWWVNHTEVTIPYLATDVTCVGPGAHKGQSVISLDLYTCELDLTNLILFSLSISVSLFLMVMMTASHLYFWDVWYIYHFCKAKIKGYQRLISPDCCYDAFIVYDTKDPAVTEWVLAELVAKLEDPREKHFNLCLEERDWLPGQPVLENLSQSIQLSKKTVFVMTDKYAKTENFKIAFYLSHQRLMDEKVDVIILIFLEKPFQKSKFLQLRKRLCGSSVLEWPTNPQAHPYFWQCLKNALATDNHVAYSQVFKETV
Test: HEK Cell Assay (TLR7/NFKb reporter, Steady-Glo luciferase readout)
Settings: 30 min compound preincubation, then R*48 agonist for 5 hours, read-out: Potency
QUANTITY_NAME: IC50

MOLECULE | QUANTITY_NAME | ASSAY_VALUE
CCN(CC)CCNC(=O)C1CCN(c2ccc(C(F)(F)F)c3ncccc23)CC1 | IC50 | < 1000 nM
CC(C(=O)N[C@@H]1C[C@H](C)CN(c2ccc(C(F)F)c3nccnc23)C1)N1CC(O)C1 (stereo partly shown) | IC50 | 1000 to 10000 nM
CC(C(=O)N[C@@H]1C[C@H](C)CN(c2ccc(C(F)(F)F)c3nccnc23)C1)N1CCC(O)CC1 (single isomer, unassigned) [Compound 371] | IC50 | < 1000 nM
CC1CC(CN2CCN(C)CC2)CN(c2ccc(C(F)(F)F)c3ncccc23)C1 (single isomer, unassigned) [Compound 534] | IC50 | 1000 to 10000 nM
CCC(C)C(=O)N[C@@H]1C[C@H](C)CN(c2ccnc3nccnc23)C1 (single isomer, unassigned) [Compound 157] | IC50 | > 10000 nM
C[C@H]1C[C@@H](NC(=O)CN2CCOCC2)CN(c2ccc(C(F)(F)F)c3nccnc23)C1 | IC50 | < 1000 nM
C[C@H]1C[C@@H](NC(=O)C(C)(C)N2CCCCC2)CN(c2ccc(C(F)(F)F)c3ncccc23)C1 | IC50 | < 1000 nM

src = patent US10947213B1
